Value source: patent US20240270821A1

Below is a list of entries, each paired with its recorded pEC50 value.
Molecular target: hGIPR (Homo sapiens, UniProt P48546)
Experiment: Functional cAMP activation in the presence of 0.1% casein (no HSA);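 also: intracellular cAMP rise after 30 min at 37 °C read by HTRF against a standard curve, scaled between buffer alone (0%) and top control ligand concentration (100%), four-parameter fit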
Format: cell-based
Settings: in the presence of 0.1% casein (no HSA); geometric mean; read-out: Relative cAMP EC50, hGIPR
pEC50: −log10 of the molar value. Starred links: 1 amine or outer side, 2 acyl side, 3 side chain; linkers in the order of their positions; H or OH if unused. Non-standard residues stand in square brackets, D forms with d. Groups on a side chain read outwards from the residue. *: point of attachment. C18 diacid = O=C(O)CCCCCCCCCCCCCCCCC(=O)*; γGlu = O=C(O)[C@H](CCC(=O)[*:2])N[*:1]; αMe4Pal = C[C@](N)(Cc1ccncc1)C(=O)O; 4Pal = N[C@@H](Cc1ccncc1)C(=O)O; αMeL = CC(C)C[C@](C)(N)C(=O)O; Orn = NCCC[C@H](N)C(=O)O; AEEA = NCCOCCOCC(=O)O; Aib = CC(C)(N)C(=O)O
endpointLabel: pEC50

H-Y[Aib]QGTFTSDFS[Orn][αMeL]LDKK([AEEA-γGlu-C18 diacid])AQ[Aib]AFIEYLLAGGPSSGAPPPSGT-NH2 [Example 87]; 9.89
H-Y[Aib]QGTFTSD[4Pal]S[Orn][αMeL]LD[Orn]K([γGlu-γGlu-C18 diacid])AQ[αMe4Pal]QFIEYLLAGGPSSGAPPPSGSEE-NH2 [Example 1002]; 9.92
H-Y[Aib]QGTFTSDFS[Orn][αMeL]LDKK([AEEA-γGlu-C18 diacid])AQ[Aib]AFIEWLLEGGPSSGAPPPEG[4Pal]-NH2 [Example 262]; 9.63

====

Some substances, each annotated with its measured Body weight (%).
Test: Body weight in diet-induced obese C57BL/6 mice
Format: in vivo
Conditions: 10 nmol/kg SC Q3D, 14 days, percent of starting weight, DIO mice, mean ± SEM n=5
Marks after values point to notes of the source that are not given here. Starred links: 1 amine or outer side, 2 acyl side, 3 side chain; linkers in the order of their positions; H or OH if unused. Non-standard residues stand in square brackets, D forms with d. Groups on a side chain read outwards from the residue. *: point of attachment. C20 diacid = O=C(O)CCCCCCCCCCCCCCCCCCC(=O)*; C18 diacid = O=C(O)CCCCCCCCCCCCCCCCC(=O)*; αMePhe(2-F) = C[C@](N)(Cc1ccccc1F)C(=O)O; γGlu = O=C(O)[C@H](CCC(=O)[*:2])N[*:1]; 4Pal = N[C@@H](Cc1ccncc1)C(=O)O; αMeL = CC(C)C[C@](C)(N)C(=O)O; Orn = NCCC[C@H](N)C(=O)O; AEEA = NCCOCCOCC(=O)O; Aib = CC(C)(N)C(=O)O
endpointLabel: Body weight (%)

H-Y[Aib]QGTFTSDFS[Orn][αMeL]LDKK([AEEA-AEEA-γGlu-C18 diacid])AQ[Aib]AFIEYLLE[Aib]GPSSGAPPPSGS-NH2 [Example 75]; 96.28 +/− 1.51%
H-Y[Aib]QGT[αMePhe(2-F)]TSDYSKLLDKIAQK([AEEA-γGlu-C20 diacid])AFIEYLIEGGPSSGAPPPSEG-NH2 [Example 339]; 82.36 +/− 3.01**** %
H-Y[Aib]QGTFTSDFS[Orn][αMeL]LDKK([AEEA-γGlu-C18 diacid])AQ[Aib]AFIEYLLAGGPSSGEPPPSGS-NH2 [Example 94]; 84.92 +/− 1.79**** %
H-Y[Aib]QGTFTSDFSK[αMeL]LDKK([AEEA-γGlu-C20 diacid])AQQAFIEYLLA[Aib]GPSSGAPPPSEG-NH2 [Example 30]; 90.12 +/− 0.30** %
H-Y[Aib]QGTFTSD[4Pal]SR[αMeL]LDKK([AEEA-γGlu-C18 diacid])AQ[Aib]AFIEYLLE[Aib]GESSGAPPPSGS-NH2 [Example 132]; 98.66 +/− 0.47%

====

Parameter pEC50: see the listing below.
Biological target: hGIPR (Homo sapiens, UniProt P48546)
Sequence (P48546 22-466): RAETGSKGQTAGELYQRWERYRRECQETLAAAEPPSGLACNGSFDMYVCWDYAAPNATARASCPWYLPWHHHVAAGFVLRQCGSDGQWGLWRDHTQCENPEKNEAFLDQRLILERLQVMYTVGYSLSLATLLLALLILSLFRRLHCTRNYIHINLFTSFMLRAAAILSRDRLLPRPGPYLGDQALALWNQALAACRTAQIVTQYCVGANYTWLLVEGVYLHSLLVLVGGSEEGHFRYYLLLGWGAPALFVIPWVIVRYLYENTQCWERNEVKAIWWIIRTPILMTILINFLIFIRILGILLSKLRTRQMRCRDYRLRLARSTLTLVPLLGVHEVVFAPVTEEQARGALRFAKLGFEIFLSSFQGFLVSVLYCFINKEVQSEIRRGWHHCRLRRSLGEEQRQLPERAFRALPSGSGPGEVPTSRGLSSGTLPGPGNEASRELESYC
Experiment: Functional cAMP activation in the presence of 0.1% casein (no HSA)
Format: cell-based
Details: in the presence of 0.1% casein (no HSA); geometric mean; read-out: Relative cAMP EC50, hGIPR
pEC50: −log10 of the molar value. Starred links: 1 amine or outer side, 2 acyl side, 3 side chain; linkers in the order of their positions; H or OH if unused. Non-standard residues stand in square brackets, D forms with d. Groups on a side chain read outwards from the residue. No end group written: not given here. *: point of attachment. C20 diacid = O=C(O)CCCCCCCCCCCCCCCCCCC(=O)*; C18 diacid = O=C(O)CCCCCCCCCCCCCCCCC(=O)*; αMePhe(2-F) = C[C@](N)(Cc1ccccc1F)C(=O)O; γGlu = O=C(O)[C@H](CCC(=O)[*:2])N[*:1]; αMe4Pal = C[C@](N)(Cc1ccncc1)C(=O)O; αMeY = C[C@](N)(Cc1ccc(O)cc1)C(=O)O; 4Pal = N[C@@H](Cc1ccncc1)C(=O)O; αMeL = CC(C)C[C@](C)(N)C(=O)O; Orn = NCCC[C@H](N)C(=O)O; AEEA = NCCOCCOCC(=O)O; Aib = CC(C)(N)C(=O)O
endpointLabel: pEC50

H-Y[Aib]QGTFTSDYSI[αMeL]LDKIAAK([AEEA-AEEA-γGlu-C20 diacid])QFVEYLIAGGPSSGEPPPSEG-NH2 [Example 312]; 9.30
H-Y[Aib]QGTFTSD[4Pal]S[Orn][αMeL]LD[Orn]K([γGlu-γGlu-C18 diacid])AQ[αMe4Pal]EFIE[αMeY]LLAGGPSSGAPPPSGSEE-NH2 [Example 996]; 9.70
H-Y[Aib]QGTFTSDFSK[αMeL]LDKK([AEEA-γGlu-C20 diacid])AQ[Aib]AFIEYLLEGAPSSGAPPPSEG-NH2 [Example 47]; 9.41
Y[Aib]QGT[αMePhe(2-F)]TSDYSILLDAQAAK([AEEA-γGlu-C20 diacid])EFIEYLIEGGPSSGEPPPSEG-NH2 [Example 351]; 9.61
H-Y[Aib]QGTFTSDFSK[αMeL]LDKK([AEEA-γGlu-C20 diacid])AQ[Aib]AFIEYLLAGGPSSGAPPPSGG-NH2 [Example 12]; 9.77
H-Y[Aib]QGTFTSD[4Pal]SQ[αMeL]LDKK([AEEA-γGlu-C18 diacid])AQ[αMe4Pal]AFIEYLIE[Aib]GPSSGAPPPSGSEEE-NH2 [Example 898]; 9.54
